Numbers sourced from paper PMC4980693.

TEST SYSTEM: TRPV4 (transient receptor potential vanilloid 4) (Homo sapiens)
Sequence (Q9HBA0 whole entry): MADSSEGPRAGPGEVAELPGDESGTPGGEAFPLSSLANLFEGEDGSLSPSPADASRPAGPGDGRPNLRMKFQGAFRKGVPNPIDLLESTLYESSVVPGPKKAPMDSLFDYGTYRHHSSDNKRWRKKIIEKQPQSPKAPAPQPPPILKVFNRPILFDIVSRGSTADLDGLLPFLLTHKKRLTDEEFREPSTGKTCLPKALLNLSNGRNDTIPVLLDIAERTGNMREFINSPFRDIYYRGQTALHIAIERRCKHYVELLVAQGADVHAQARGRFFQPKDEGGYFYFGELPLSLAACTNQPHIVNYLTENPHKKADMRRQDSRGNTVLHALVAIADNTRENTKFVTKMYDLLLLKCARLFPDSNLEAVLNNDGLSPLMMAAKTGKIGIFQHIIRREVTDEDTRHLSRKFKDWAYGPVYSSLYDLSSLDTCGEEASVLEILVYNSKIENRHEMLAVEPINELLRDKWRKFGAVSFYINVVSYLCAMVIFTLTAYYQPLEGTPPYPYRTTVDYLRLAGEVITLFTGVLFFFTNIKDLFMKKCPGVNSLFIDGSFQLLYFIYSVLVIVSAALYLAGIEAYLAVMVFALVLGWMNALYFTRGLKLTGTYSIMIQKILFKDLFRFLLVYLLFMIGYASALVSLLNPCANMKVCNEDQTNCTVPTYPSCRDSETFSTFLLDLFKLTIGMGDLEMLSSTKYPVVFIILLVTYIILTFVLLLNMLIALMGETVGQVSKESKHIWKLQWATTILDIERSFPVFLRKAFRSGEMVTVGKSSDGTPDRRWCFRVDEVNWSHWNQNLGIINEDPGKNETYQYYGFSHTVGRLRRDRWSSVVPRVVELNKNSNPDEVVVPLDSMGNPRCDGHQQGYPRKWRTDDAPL
ASSAY NAME: whole-cell patch clamp and Fura-2 Ca2+ imaging in human trabecular meshwork cells (endogenous channel), agonist
QUANTITY MEASURED: EC50

COMPOUND | QUANTITY MEASURED | RESULT
CC(C)C[C@H](NC(=O)c1cc2ccccc2s1)C(=O)N1CCN(C(=O)[C@H](CO)NS(=O)(=O)c2ccc(Cl)cc2Cl)CC1 [GSK101, GSK1016790A] | EC50 | ~25 nM
